# assay protocol: APR_HepG2_MicrotubuleCSK_72hr: Apredica 72-hour HepG2 Assay for Microtubule CSK Stabilty (AID 2282919)
# experimental conditions: HepG2 microtubule cytoskeleton, high-content imaging, actives raise or lower the signal
The source made the active and inactive calls. How the source made its calls: active means hit-call score of the fitted dose curve at least 0.9, where 1 is the maximum; inactive means score below 0.9.
Classes used: YES (active), NO (inactive)

compound: O=P(OC(CCl)CCl)(OC(CCl)CCl)OC(CCl)CCl
class label: NO
--
compound: CC(C)CC(C)(O)C#CC(C)(O)CC(C)C (centres undefined)
class label: NO
--
compound: On1ccccc1=S
class label: NO
--
compound: CC[C@H]1OC(=O)[C@H](C)[C@@H](O[C@H]2C[C@@](C)(OC)[C@@H](O)[C@H](C)O2)[C@H](C)[C@@H](O[C@@H]2O[C@H](C)C[C@H](N(C)C)[C@H]2O)[C@](C)(O)C[C@@H](C)C(=O)[C@H](C)[C@@H](O)[C@]1(C)O
class label: NO
--
compound: CNCc1ccc(NC(=O)c2c[nH]c3c2C(=O)CCC3)cc1
class label: NO
--
compound: CC(C)CCO
class label: NO
--
compound: O=C(NS(=O)(=O)/C=C/c1ccccc1)c1ccc(F)cc1Cl
class label: NO
--
compound: CCCC(=O)OCC
class label: NO
--
compound: COCCOc1cc2cc(C(=O)NC3CCN(C(C)C)CC3)n(CC(=O)Nc3ccc(Cl)cn3)c2cn1
class label: YES
--
compound: C1N2CN3CN1CN(C2)C3
class label: NO
--
compound: NC(=O)NO
class label: NO
--
compound: COC(=O)CC(=O)OC
class label: NO
--
compound: O=c1[nH]c2ccc(S(=O)CCN3CCC(Cc4ccc(F)cc4)CC3)cc2o1 (centres undefined)
class label: NO
--
compound: CC(C)=CCCC(C)=CC=O
class label: NO

----------
# assay protocol: ATG_PXRE_CIS: Attagene CIS-FACTORIAL HepG2 Assay for human Pregnane X Receptor Element (PXRE) (AID 2282957)
# experimental conditions: HepG2 Attagene CIS-FACTORIAL PXRE reporter, mRNA; actives raise or lower the signal
Calls of active or inactive are those of the source. Rule for the calls: active = hit-call score of the fitted dose curve at least 0.9, where 1 is the maximum; inactive = score below 0.9.
Classes used: T (active), F (inactive)

compound: Cn1cnc([N+](=O)[O-])c1Sc1ncnc2nc[nH]c12
class label: F
--
compound: C=CC(=C)CCC=C(C)C
class label: T
--
compound: Cn1c(=O)c2c(ncn2C)n(C)c1=O
class label: F
--
compound: O=C(CCCCCCCCc1cccnc1)N1CCC(C=C(c2ccccc2)c2ccccc2)CC1
class label: T
--
compound: CCCN(C1CCN(C(=O)C2CCNCC2)CC1)[C@@H]1CCc2ccc(OC)cc2C1
class label: T
--
compound: CCCCCCCCCCCCc1ccccc1
class label: F
--
compound: CC(=O)c1ccc2c(c1)[C@H](NC(=O)c1ccc(F)cc1)[C@@H](O)C(C)(C)O2
class label: T
--
compound: Cc1ccc(O)cc1
class label: F
--
compound: O=C1CCC(N2C(=O)c3ccccc3C2=O)C(=O)N1 (stereo not given)
class label: F
--
compound: CCCCCCc1ccc(O)cc1O
class label: F
--
compound: COc1cccc(-c2ccc(/C=C\CN3CCCCCC3)cc2Cl)c1
class label: T
--
compound: CCCCC(CC)COC(=O)CCCCCCCCC(=O)OCC(CC)CCCC (stereo not given)
class label: F
--
compound: C1=CCCC=CCCC=CCC1
class label: F
--
compound: CC[C@H]1OC(=O)[C@H](C)[C@@H](O[C@H]2C[C@@](C)(OC)[C@@H](O)[C@H](C)O2)[C@H](C)[C@@H](O[C@@H]2O[C@H](C)C[C@H](N(C)C)[C@H]2O)[C@](C)(O)C[C@@H](C)C(=O)[C@H](C)[C@@H](O)[C@]1(C)O
class label: F
--
compound: On1ccccc1=S
class label: F

Ref: PubChem BioAssay (EPA / NIEHS)
